The measurements presented in this section are drawn from the supplement of paper PMC10567573.

B1: LOXL2 (parent)
chain: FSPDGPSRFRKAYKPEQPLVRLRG

Variants of: B1
Assay: protein stability index of a GFP-peptide fusion (GPS, HEK-293T) (PSI 1-6); higher = more stable;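 further: lentivirally expressed fusions sorted by FACS into six bins by GFP to DsRed ratio, PSI derived from sequencing read proportions per bin multiplied by bin number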
Conditions: c terminus: a fixed tail appended
Output fulfilled for protein stability index not less than 2; output not fulfilled otherwise.

Kindly determine if protein stability index recorded for G24E is above or exactly 2. not fulfilled

Can you handle V20S next? not fulfilled

Can you handle R21C next? fulfilled

Can you handle P3A next? not fulfilled

Can you handle F1E next? fulfilled

Can you handle Q17M next? fulfilled

Can you handle V20N next? fulfilled

Can you handle R21V next? not fulfilled

Can you handle P6T next? not fulfilled

Can you handle E16L next? fulfilled

Can you handle S7F next? fulfilled

Can you handle S7K next? not fulfilled

Can you handle R23M next? fulfilled

Can you handle Q17G next? fulfilled

Can you handle R8Y next? fulfilled

Can you handle P3F next? fulfilled

Can you handle D4S next? not fulfilled

Can you handle Y13K next? fulfilled

Can you handle F1V next? fulfilled
